# measured on: human ether-à-go-go-related gene (hERG) potassium channel (human)
# assay procedure: primary screen, population patch clamp on CHO cells stably expressing hERG; higher = less effect of the substance
# Text: Briefly, Chinese hamster ovary (CHO) cells stably expressing the hERG channel were dislodged from tissue culture flasks and dispensed into PPC plates. […] Small molecule effects on hERG current density were quantified by […].
In all, about 310,000 compounds went through this assay and about 2,200 (0.71%) showed an effect of 50% or more. The effect is printed as a negative number. The full list was thinned out, with strong results kept by preference.
measured endpoint: hERG current change (%, negative = inhibition) at 1uM (%)
Please give a number only; it is taken to be in %.

Cl.OC(COc1ccccc1)CN1C2=NCCCN2c2ccccc21 (stereo not shown)
-54.6
CSc1nnc(-c2ccc(O)cc2)n1C
-1.62
CN(C)S(=O)(=O)N1CCC(Oc2cccc(C(=O)N3CCSCC3)c2)CC1
4.68
CCOc1ccc(-c2c(C)n(-c3ccc(OCC)cc3)c3[n+]2CCCCC3)cc1.[O-][Cl+3]([O-])([O-])[O-]
-50.8

Q: Given the compound O=C(CCC(=O)N1CCOc2ccc(Cl)cc21)NCCCN1CCN(c2ccccc2F)CC1 , what is its reported hERG current change (%, negative = inhibition) at 1uM?
Result: -22.2

Q: Given the compound CCN1C2=NCCCN2c2ccccc21.Cl , what is its reported hERG current change (%, negative = inhibition) at 1uM?
Result: 2.9

Q: Given the compound CCOc1ccc(-n2c(-c3ccc(Br)cc3)c[n+]3c2CCCCC3)cc1.[Br-] , what is its reported hERG current change (%, negative = inhibition) at 1uM?
Result: -46.5

Q: Given the compound CC(C)(C)NC(=O)C(c1ccco1)N(Cc1ccc(F)cc1)C(=O)c1snc(C(N)=O)c1N (stereo not shown) , what is its reported hERG current change (%, negative = inhibition) at 1uM?
Result: -6.09

Q: Given the compound Cl.OC(COc1ccc(Cl)cc1)CN1C2=NCCCN2c2ccccc21 (stereo not shown) , what is its reported hERG current change (%, negative = inhibition) at 1uM?
Result: -82

Q: Given the compound OC(COc1ccccc1)CN1CCCC1 (stereo not shown) , what is its reported hERG current change (%, negative = inhibition) at 1uM?
Result: 9.18

----------
# measured on: human ether-à-go-go-related gene (hERG) potassium channel (human, UniProt Q12809)
# Sequence (Q12809 whole entry, looked up): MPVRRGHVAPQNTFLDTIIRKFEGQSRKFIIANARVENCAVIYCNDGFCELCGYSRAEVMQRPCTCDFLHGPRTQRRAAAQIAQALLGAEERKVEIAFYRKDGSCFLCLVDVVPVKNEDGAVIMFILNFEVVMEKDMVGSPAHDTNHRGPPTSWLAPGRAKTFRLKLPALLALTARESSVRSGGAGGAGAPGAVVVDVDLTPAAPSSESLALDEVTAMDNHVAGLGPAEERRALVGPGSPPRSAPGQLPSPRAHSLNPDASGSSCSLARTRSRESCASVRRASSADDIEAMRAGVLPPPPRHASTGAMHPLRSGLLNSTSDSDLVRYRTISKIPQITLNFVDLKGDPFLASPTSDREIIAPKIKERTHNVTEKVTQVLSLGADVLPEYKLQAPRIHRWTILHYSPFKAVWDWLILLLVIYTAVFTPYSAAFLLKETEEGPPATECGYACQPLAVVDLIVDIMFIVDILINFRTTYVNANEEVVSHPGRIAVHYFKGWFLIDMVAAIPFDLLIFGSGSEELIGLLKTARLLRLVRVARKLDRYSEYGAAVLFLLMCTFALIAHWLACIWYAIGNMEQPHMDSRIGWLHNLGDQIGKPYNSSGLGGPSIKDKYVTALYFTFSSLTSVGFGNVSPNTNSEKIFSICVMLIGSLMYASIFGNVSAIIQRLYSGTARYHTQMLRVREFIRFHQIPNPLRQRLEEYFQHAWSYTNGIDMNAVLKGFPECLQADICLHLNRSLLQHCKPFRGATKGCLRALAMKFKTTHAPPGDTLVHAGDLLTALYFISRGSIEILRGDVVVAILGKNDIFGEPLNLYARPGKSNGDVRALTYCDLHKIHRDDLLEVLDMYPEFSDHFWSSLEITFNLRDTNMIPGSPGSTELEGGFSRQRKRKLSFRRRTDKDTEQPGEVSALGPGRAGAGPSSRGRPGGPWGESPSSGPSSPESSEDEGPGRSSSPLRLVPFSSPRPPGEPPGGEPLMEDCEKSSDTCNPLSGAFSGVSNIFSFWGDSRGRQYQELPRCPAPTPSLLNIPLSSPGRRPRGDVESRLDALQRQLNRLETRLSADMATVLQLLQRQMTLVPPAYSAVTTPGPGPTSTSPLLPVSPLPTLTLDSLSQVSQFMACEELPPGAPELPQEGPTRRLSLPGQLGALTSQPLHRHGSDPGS
# assay procedure: primary screen, population patch clamp on CHO cells stably expressing hERG; higher = less effect of the substance
In all, about 310,000 compounds went through this assay and about 2,200 (0.71%) showed an effect of 50% or more. The effect is printed as a negative number. The sample as a whole holds a higher share of strong results than the screen did.
measured endpoint: hERG current change (%, negative = inhibition) at 1uM (%)
Please give a number only; it is taken to be in %.

# annotated cases, reported hERG current change (%, negative = inhibition) at 1uM shown
CN1CCc2c1nc1ccccc1c2N.O=C(O)c1cc([N+](=O)[O-])ccc1Cl
7.96
O=C(O)c1cncc(Br)c1
8.7
CCC1=Nc2ccccc2NC2=C1C(=O)CCC2.Cl
-18.7
Cc1ccc(C)c2c(N)c3c(nc12)CCCCC3.O=C(O)c1cncc(Br)c1
-51.9
CCCC(=O)Nc1cc(C(=O)O)ccc1Sc1ccc(C)cc1
10.9

Q: Given the molecule Cc1cc(Br)c2nc3c(c(C(=O)O)c2c1)CCCCC3 , what is its reported hERG current change (%, negative = inhibition) at 1uM?
Result: 7.18

Q: Given the molecule Cc1cccc2c(N)c3c(nc12)N(C)CC3.O=C(O)C(=O)O , what is its reported hERG current change (%, negative = inhibition) at 1uM?
Result: 7.57

Q: Given the molecule Cc1ccc(N2CCN(C(=S)Nc3ccc(Cl)cc3)CC2)cc1 , what is its reported hERG current change (%, negative = inhibition) at 1uM?
Result: 13.4

Q: Given the molecule COc1ccccc1N1CCN(CCCCNC(=O)c2ccc3ccccc3c2)CC1.Cl , what is its reported hERG current change (%, negative = inhibition) at 1uM?
Result: -75.8

Q: Given the molecule Cc1ccc(C(=O)NCCCN2CCN(CCCNC(=O)c3ccc(C)cc3)CC2)cc1 , what is its reported hERG current change (%, negative = inhibition) at 1uM?
Result: -36.5

----------
# measured on: human ether-à-go-go-related gene (hERG) potassium channel (human, UniProt Q12809)
# assay procedure: primary screen, population patch clamp on CHO cells stably expressing hERG; higher = less effect of the substance
About 2,200 (0.71%) of roughly 310,000 compounds showed an effect of 50% or more. Effects have a minus sign here. The full list was thinned out, with strong results kept by preference.
measured endpoint: hERG current change (%, negative = inhibition) at 1uM (%)
Please give a number only; it is taken to be in %.

# annotated cases, reported hERG current change (%, negative = inhibition) at 1uM shown
O=C(CSc1ccc2nnc(-c3ccccn3)n2n1)Nc1ccc2c(c1)OCO2
2.61
O=C(CSc1ccc2nnc(-c3ccccn3)n2n1)NCc1ccc2c(c1)OCO2
-65.8
O=C(CSc1nnc(-c2cccnc2)n1-c1ccccc1)NCc1ccc2c(c1)OCO2
-47.9

Q: Given the compound O=C(CSc1nnc(-c2cccnc2)n1-c1ccc(F)cc1)NCc1ccc2c(c1)OCO2 , what is its reported hERG current change (%, negative = inhibition) at 1uM?
Result: -54.5

Q: Given the compound O=C(CSc1ccc2nnc(-c3ccncc3)n2n1)Nc1ccc2c(c1)OCO2 , what is its reported hERG current change (%, negative = inhibition) at 1uM?
Result: 13.8

----------
# measured on: human ether-à-go-go-related gene (hERG) potassium channel (human)
# assay procedure: primary screen, population patch clamp on CHO cells stably expressing hERG; higher = less effect of the substance
The whole screen tested about 310,000 compounds, of which about 2,200 (0.71%) showed an effect of 50% or more. The effect is printed as a negative number. Many of the other results were omitted from the sample, so strong results are more common in it than they were.
Rule: hERG current change (%, negative = inhibition) at 1uM under -50% gives FALSE, otherwise TRUE.

// below: answered compounds
Cc1ccc(Nc2nc(N)nc(CN3CCN(Cc4ccc5c(c4)OCO5)CC3)n2)cc1
FALSE
Cc1cccc(Nc2nc(N)nc(CN3CCN(Cc4ccc5c(c4)OCO5)CC3)n2)c1
FALSE
Nc1nc(CN2CCN(Cc3ccccc3)CC2)nc(Nc2ccc3c(c2)OCCO3)n1
FALSE
Cc1cccc(Nc2nc(N)nc(CN3CCN(c4ccccc4)CC3)n2)c1
TRUE

Q: Reported hERG current change (%, negative = inhibition) at 1uM reaches at least -50% for Nc1nc(CN2CCN(Cc3ccc4c(c3)OCO4)CC2)nc(Nc2ccccc2)n1 ?
Result: FALSE

----------
# measured on: human ether-à-go-go-related gene (hERG) potassium channel (human)
# assay procedure: primary screen, population patch clamp on CHO cells stably expressing hERG; higher = less effect of the substance
In all, about 310,000 compounds went through this assay and about 2,200 (0.71%) showed an effect of 50% or more. Effects have a minus sign here. The sample holds strong results, similar compounds and a random draw of the others, so the mix is not that of the screen.
measured endpoint: hERG current change (%, negative = inhibition) at 1uM
Note: state the figure and append the unit.

# annotated cases, reported hERG current change (%, negative = inhibition) at 1uM shown
CC1CN(C)C(C)CC1OC(=O)C(c1ccccc1)c1ccccc1 (stereo not shown)
-68.3%
O=C(O)C(=O)O.c1ccc(-c2ccccc2OCCCN2CCCCC2)cc1
-69.1%
O=C(c1cc(-c2ccncc2)nc2ccccc12)N1CCN(c2ccccn2)CC1
-64%
O=C(O)C(=O)O.c1ccc(-c2ccccc2OCCOCCN2CCCCC2)cc1
-18.9%
CN(C)[C@@H]1CCC[C@H]1OC(=O)C(c1ccccc1)c1ccccc1
-40.2%
Cc1ccc(CNC(=O)CN(Cc2ccccc2)S(C)(=O)=O)cc1
-3.4%

Q: Given the molecule COC(=O)c1cc2ccsc2n1CC(=O)Nc1ccc(N(C)C)cc1 , what is its reported hERG current change (%, negative = inhibition) at 1uM?
Result: 5.25%

Q: Given the molecule O=C(c1cc(-c2ccncc2)nc2ccc(Br)cc12)N1CCN(c2ccccn2)CC1 , what is its reported hERG current change (%, negative = inhibition) at 1uM?
Result: -9.18%

Q: Given the molecule O=C(O)C(=O)O.c1ccc(CN2CCN(CCOCCOc3ccc4c(c3)CCC4)CC2)cc1 , what is its reported hERG current change (%, negative = inhibition) at 1uM?
Result: 11.6%

Q: Given the molecule N#CC1=C(N)Oc2nc[nH]c(=O)c2C1c1cccs1 (stereo not shown) , what is its reported hERG current change (%, negative = inhibition) at 1uM?
Result: 17.3%

----------
# measured on: human ether-à-go-go-related gene (hERG) potassium channel (human, UniProt Q12809)
# assay procedure: primary screen, population patch clamp on CHO cells stably expressing hERG; higher = less effect of the substance
Screen size: about 310,000 compounds; about 2,200 (0.71%) showed an effect of 50% or more. Effects have a minus sign here. Only a selection was taken, and strong results are over-represented in it overall.
Form field: hERG current change (%, negative = inhibition) at 1uM (one value per entry).
Please give a number only; it is taken to be in %.

# annotated cases, reported hERG current change (%, negative = inhibition) at 1uM shown
O=c1c2ccccc2[nH]c(=S)n1CCCN1CCC(Cc2ccccc2)CC1
-52
O=C(CN1CCC(C(=O)c2ccc(F)cc2)CC1)Nc1ccccc1
-10.5
Cc1cccc(C)c1OCC(O)CN1CCc2ccccc2C1.Cl (stereo not shown)
-24.3

Q: Given the compound CCn1ccnc1CN1CCN(CC=C(C)C)C(CCO)C1 (stereo not shown) , what is its reported hERG current change (%, negative = inhibition) at 1uM?
Result: 9.77

Q: Given the compound CS(=O)(=O)N1CCN(C(=O)c2ccc(-c3ccccc3)cc2)CC1 , what is its reported hERG current change (%, negative = inhibition) at 1uM?
Result: 9.18
